tested on: HCC1500 (Breast Carcinoma); test: Bliss excess, mean over the matrix (fraction); higher = more synergy;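 also: after 72 h of two-drug dosing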

- COMPOUND: "CC1(C)CCC(CN2CCN(c3ccc(C(=O)NS(=O)(=O)c4ccc(NCC5CCOCC5)c([N+](=O)[O-])c4)c(Oc4cnc5[nH]ccc5c4)c3)CC2)=C(c2ccc(Cl)cc2)C1 [Venetoclax] + COc1cc(Nc2ncc3c(n2)-c2ccc(Cl)cc2C(c2c(F)cccc2OC)=NC3)ccc1C(=O)O [Alisertib] (first compound max 1 µM, 7x7, partner max 10 µM)"
  Bliss excess: 0.141
- COMPOUND: "Cc1c2c(nn1C)CSCc1cc(n(C)n1)CSc1cc(c3ccccc3c1)OCCCc1c(C(=O)O)n(C)c3c-2c(Cl)ccc13 [AZD5991] + CCN(CCO)CCCOc1ccc2c(Nc3cc(CC(=O)Nc4cccc(F)c4)[nH]n3)ncnc2c1 [AZD2811] (first compound max 1 µM, 7x7, partner max 1 µM)"
  Bliss excess: 0.0466
- COMPOUND: "Cn1cnc2c(F)c(Nc3ccc(Br)cc3Cl)c(C(=O)NOCCO)cc21 [Selumetinib] + C=CCn1c(=O)c2cnc(Nc3ccc(N4CCN(C)CC4)cc3)nc2n1-c1cccc(C(C)(C)O)n1 [AZD1775] (first compound max 10 µM, partner max 1 µM)"
  Bliss excess: -0.0261
- COMPOUND: "COc1nnc2ccc(N3CCC(c4ccc(OCCN5CCN(C)C(=O)[C@H]5C)cc4)CC3)nn12 [AZD5153] + CN(CC[C@H](CSC1=CC=CC=C1)NC2=C(C=C(C=C2)S(=O)(=O)NC(=O)C3=CC=C(C=C3)N4CCC(CC4)[C@H](C5=CC=CC=C5C6=CC=C(C=C6)Cl)O)S(=O)(=O)C(F)(F)F)CCO [AZD4320] (first compound max 1 µM, 7x7, partner max 1 µM)"
  Bliss excess: -0.0002
- COMPOUND: "CCc1c2c(nc3ccc(O)cc13)-c1cc3c(c(=O)n1C2)COC(=O)[C@]3(O)CC [SN-38] + O=C(c1cc(Cc2n[nH]c(=O)c3ccccc23)ccc1F)N1CCN(C(=O)C2CC2)CC1 [Olaparib] (first compound max 0.3 µM, 7x7, partner max 10 µM)"
  Bliss excess: 0.051
- COMPOUND: "CC1(C)CCC(CN2CCN(c3ccc(C(=O)NS(=O)(=O)c4ccc(NCC5CCOCC5)c([N+](=O)[O-])c4)c(Oc4cnc5[nH]ccc5c4)c3)CC2)=C(c2ccc(Cl)cc2)C1 [Venetoclax] + C[C@@H](Nc1cc(F)cc(F)c1)c1cc(C(=O)N(C)C)cc2c(=O)cc(N3CCOCC3)oc12 [AZD8186] (first compound max 1 µM, 7x7, partner max 3 µM)"
  Bliss excess: 0.0626
- COMPOUND: "Cn1cnc2c(F)c(Nc3ccc(Br)cc3Cl)c(C(=O)NOCCO)cc21 [Selumetinib] + CC(C)n1c(=O)n(C)c2cnc3cc(F)c(-c4ccc(OCCCN5CCCCC5)nc4)cc3c21 [AZD1390] (first compound max 10 µM, 7x7, partner max 0.3 µM)"
  Bliss excess: -0.0156
- COMPOUND: "COc1cccc(OCCCN)c1-c1cc(Nc2cnc(C#N)cn2)n[nH]1 [Prexasertib] + O=C(c1cc(Cc2n[nH]c(=O)c3ccccc23)ccc1F)N1CCN(C(=O)C2CC2)CC1 [Olaparib] (first compound max 1 µM, 7x7, partner max 10 µM)"
  Bliss excess: -0.004
- COMPOUND: "C[C@@H]1COCCN1c1cc(C2([S@](C)(=N)=O)CC2)nc(-c2ccnc3[nH]ccc23)n1 [AZD6738] + O=C(c1cc(Cc2n[nH]c(=O)c3ccccc23)ccc1F)N1CCN(C(=O)C2CC2)CC1 [Olaparib] (first compound max 10 µM, 7x7, partner max 10 µM)"
  Bliss excess: 0.0412
- COMPOUND: "CS(=O)(=O)CCNCc1ccc(-c2ccc3ncnc(Nc4ccc(OCc5cccc(F)c5)c(Cl)c4)c3c2)o1 [Lapatinib] + NC1(c2ccc(-c3nc4ccn5c(=O)[nH]nc5c4cc3-c3ccccc3)cc2)CCC1 [MK-2206] (first compound max 10 µM, 7x7, partner max 10 µM)"
  Bliss excess: 0.0415
- COMPOUND: "NC1(C(=O)N[C@@H](CCO)c2ccc(Cl)cc2)CCN(c2ncnc3[nH]ccc23)CC1 [Capivasertib] + CC(=O)c1c(C)c2cnc(Nc3ccc(N4CCNCC4)cn3)nc2n(C2CCCC2)c1=O [Palbociclib] (first compound max 10 µM, 7x7, partner max 10 µM)"
  Bliss excess: 0.0017
- COMPOUND: "COc1nnc2ccc(N3CCC(c4ccc(OCCN5CCN(C)C(=O)[C@H]5C)cc4)CC3)nn12 [AZD5153] + CC1(C)CCC(CN2CCN(c3ccc(C(=O)NS(=O)(=O)c4ccc(NCC5CCOCC5)c([N+](=O)[O-])c4)c(Oc4cnc5[nH]ccc5c4)c3)CC2)=C(c2ccc(Cl)cc2)C1 [Venetoclax] (first compound max 1 µM, 7x7, partner max 1 µM)"
  Bliss excess: -0.04
- COMPOUND: "Cc1c2c(nn1C)CSCc1cc(n(C)n1)CSc1cc(c3ccccc3c1)OCCCc1c(C(=O)O)n(C)c3c-2c(Cl)ccc13 [AZD5991] + Cn1cnc2c(F)c(Nc3ccc(Br)cc3Cl)c(C(=O)NOCCO)cc21 [Selumetinib] (first compound max 1 µM, 7x7, partner max 3 µM)"
  Bliss excess: 0.0093

Every entry's value here was drawn from the supplement of paper PMC11061612.
